# Test system: HIV-1RF
# test.protocol: Anti-HIV-1 cytoprotection assay in CEM-SS cells
# Assay type: cell-based
# experimental.context: Human immunodeficiency virus 1, 144 h; CEM-SS cells infected with HIV-1RF, MOI approximately 0.01, 6 days, MTS; read-out: CEM-SS IC50 (Anti-HIV Screening)
readout.kind: IC50 (µM)
The reply should contain only the number, in µM.

*Q* Answer with the recorded IC50 for the compound listed here: [BH3-][P+](O)(OCC1OC(n2cc(C)c(=O)[nH]c2=O)CC1N=[N+]=[N-])OP(=O)(O)C(F)(F)P(=O)(O)O (single isomer, unassigned) [Compound 27-isomer 1]
*A* 1.64
